system: HeLa; assay: Cytotoxicity against human HeLa MKYP cells assessed as cell death at 25 uM and measured DAPI staining method assay relative to control; type: toxicity, cell-based
Please use Satisfied whenever Activity is not below 6%, and Not satisfied whenever it is.

# example entries with known answers
compound=C[C@H]1CCc2ccccc2[C@H]1Nc1ncnc2[nH]c(C(F)(F)F)cc12 measuredon=HeLa assignedlabel=Satisfied
compound=Oc1ccc2c(c1)CCC[C@H]2Nc1ncnc2[nH]c(C(F)(F)F)cc12 measuredon=HeLa assignedlabel="Not satisfied"
compound=CO[C@@H]1CCc2ccccc2[C@H]1Nc1ncnc2[nH]c(C(F)(F)F)cc12 measuredon=HeLa assignedlabel=Satisfied
compound=O[C@@H]1Cc2ccccc2[C@@H]1Nc1ncnc2[nH]c(C(F)(F)F)cc12 measuredon=HeLa assignedlabel="Not satisfied"
compound="N#Cc1cccc2c1CCCC2Nc1ncnc2[nH]c(C(F)(F)F)cc12 (stereo not drawn)" measuredon=HeLa assignedlabel=Satisfied
compound=CO[C@H]1COc2ccccc2[C@H]1Nc1ncnc2[nH]c(C(F)(F)F)cc12 measuredon=HeLa assignedlabel="Not satisfied"

hey, is Activity for this one >= 6%? `OC[C@H]1CCc2ccccc2[C@@H]1Nc1ncnc2[nH]c(C(F)(F)F)cc12`
Satisfied

Please indicate if the recorded Activity for `CN1CC[C@H](Nc2ncnc3[nH]c(C(F)(F)F)cc23)c2ccccc21` meets or exceeds 6%.
Not satisfied

API: above_or_equal(metric=Activity, cutoff=6%) for item `CO[C@H]1CCc2ccccc2[C@@H]1Nc1ncnc2[nH]c(C(F)(F)F)cc12`
Not satisfied

Does `c1ccc2c(c1)OCC[C@H]2Nc1ncnc2[nH]c(C3CC3)cc12` have a reported Activity of at least 6%?
Satisfied

---

test: Oral bioavailability in mouse at 10 mg/kg; format: ADME, organism-based; conditions: in vivo
quantityMeasured: bioavailability (%)
Give bare numbers, in %.

Which bioavailability reading was recorded for the molecule FC(F)(F)c1cc2c(NC3CCCc4ccccc43)ncnc2[nH]1 (stereo in doubt) ?
17.4

---

test: AUC in mouse at 1 mg/kg, iv; type: ADME, organism-based; set-up: dose 1 mg/kg; conditions: in vivo
quantityMeasured: AUC (µM·h)
Answers are plain numbers, in µM·h.

Look up AUC for this compound: FC(F)(F)c1cc2c(NC3CCCc4ccccc43)ncnc2[nH]1 (stereo in doubt)
1.5

---

tested on: HeLa; assay: Cytotoxicity against human HeLa MKYP cells assessed as percentage of DAPI-positive cells at 50 uM and measured by DAPI staining method; format: toxicity, cell-based
Could you mark each record t if its Activity falls strictly under 10%, and f if it equals or exceeds it?

molecule=FC(F)(F)c1cc2c(NC3CCN(Cc4ccccc4)CC3)ncnc2[nH]1 assignedlabel=f
molecule=c1coc(CNc2ncnc3[nH]cnc23)c1 assignedlabel=t
molecule=C[C@H](Nc1ncnc2[nH]cnc12)c1ccccc1 assignedlabel=f
molecule="CC(CNc1ncnc2[nH]cnc12)c1ccccc1 (stereo unspecified)" assignedlabel=f
molecule=CO[C@@H]1COc2ccccc2[C@@H]1Nc1ncnc2[nH]c(C(F)(F)F)cc12 assignedlabel=f

Is it true that Activity reported for `Fc1cc(Cl)cc(CNc2ncnc3[nH]c(C(F)(F)F)cc23)c1` is less than 10%?
t

Consider the molecule `CCCCNc1ncnc2[nH]c(C(F)(F)F)cc12` . Is its Activity strictly less than 10%?
t
